target: T1, human 4-1BB (tumor necrosis factor receptor superfamily member 9) (human, UniProt Q07011 24-255); experiment: flow cytometry (FACS) on CHO-K1/hu 4-1BB cells
T1 construct: whole, on cells; also called hu 4-1BB; CD137
T1 sequence (Q07011 24-255): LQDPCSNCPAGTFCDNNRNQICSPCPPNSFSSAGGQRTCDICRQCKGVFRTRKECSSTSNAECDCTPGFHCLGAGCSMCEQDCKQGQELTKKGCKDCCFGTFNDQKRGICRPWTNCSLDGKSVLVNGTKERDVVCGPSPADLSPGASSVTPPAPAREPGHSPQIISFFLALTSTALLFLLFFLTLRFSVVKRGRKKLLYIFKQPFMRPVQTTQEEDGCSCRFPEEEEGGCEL
Test readout: pEC50
By convention, pEC50 is the negative base-10 log of a molar concentration.

What does the record list as pEC50 for Anti-4-1BB heavy-chain antibody PR001838_G53A, hIgG1 (antibody, V domains shown, HCAb (heavy chain dimer, no light chain), hIgG1 Fc; also called PR004469) VH: EVQLLESGGGLVQPGGSLRLSCAASGFTFSNYAMSWFRQPPETGLKWVSSIDASGGDTYYADSVKGRFTISRDNSKNTLYLQMNSLRAEDTAVYYCAKEGSHGTDDSHYDVDVWGQGTTVTVSS ? 8.89

What does the record list as pEC50 for Anti-4-1BB heavy-chain antibody 1016P0042C5, hIgG1 (antibody, V domains shown, HCAb (heavy chain dimer, no light chain), hIgG1 Fc; also called PR001771) VH: EVQLLESGGGLVQPGGSLRLSCAASGFTFSNYAMTWVRQPPGKGLEWVSSISGSGGSTYYADSVKGRFTISRDNSKNTLYLQMNSLRAEDTAVYYCAKEGTGTTSDYYYNVDVWGQGTTVTVSS ? 9.27

What does the record list as pEC50 for Anti-4-1BB heavy-chain antibody 1016P0010B11, hIgG1 (antibody, V domains shown, HCAb (heavy chain dimer, no light chain), hIgG1 Fc; also called PR001758) VH: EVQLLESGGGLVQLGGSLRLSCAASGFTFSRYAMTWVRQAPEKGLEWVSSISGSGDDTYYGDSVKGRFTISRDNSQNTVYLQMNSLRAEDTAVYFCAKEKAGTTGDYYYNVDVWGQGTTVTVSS ? 9.67
